Test system: NCI-H522
Protocol Text: NCI tumour cell line growth inhibition, 48 h
Calls of active or inactive are those of the source. Cut-off read from the data, not from the text of the source: active = GI50 up to about 1.1 µM and inactive = higher.
Quantity: GI50

CCCc1c2c3ccccc3nc-2nc2ccccn12 ... > 100 µM (inactive)

Request: // lookup GI50 for `O=c1ssc(Cl)c1Nc1c(Cl)ssc1=O`
Result: 19.6 µM (inactive)

Request: Item: `Oc1ccc(Oc2cc3c(cc2Oc2ccc(O)cc2)-c2nc-3nc3[nH]c(nc4nc(nc5[nH]c(n2)c2cc(Oc6ccc(O)cc6)c(Oc6ccc(O)cc6)cc52)-c2cc(Oc5ccc(O)cc5)c(Oc5ccc(O)cc5)cc2-4)c2cc(Oc4ccc(O)cc4)c(Oc4ccc(O)cc4)cc32)cc1`
Result: > 100 µM (inactive)

Request: Item: `CC[C@@H]([C@H](O)c1ccccc1Cl)[N+](=O)[O-]`
Result: 90.4 µM (inactive)

Request: Item: COc1ccc(C2[C@@H](Cl)C(=O)N2c2ccc(OC)cc2)cc1 (stereo partly drawn)
Result: 36 µM (inactive)

Request: Item: `N#CC(C#N)=C/C=C/c1c(Cl)cccc1Cl`
Result: 1.65 µM (inactive)

Request: Item: `NC(N)=NC(P(=O)(O)O)P(=O)(O)O`
Result: > 100 µM (inactive)

----------
System: A498
Protocol Text: NCI tumour cell line growth inhibition, 48 h
Activity calls are given as the source filed them. No stated cut-off is given here; in the data, active = GI50 up to about 1.1 µM and inactive = higher.
Result category, one only: active, inactive

For orientation, consider the following solved cases.
O=C(O)/C=C/C=C/c1ccc2c(c1)OCO2 ... inactive
O=C(NNC(=S)NCc1ccccc1)c1csc(NC(=S)NC2CCCCC2)n1 ... inactive
Cn1c(=O)oc2cc(C(O)CN3CCN(Cc4ccccn4)CC3)c(Cl)cc21 (stereo not drawn) ... inactive
COc1cc(O)c2c(c1C)C(C)(O)c1c(C)coc1C2=O (stereo not drawn) ... inactive
O=C(CCC(=O)Nc1ccc(Cl)cc1)CC(=O)c1ccc2ccccc2c1 ... inactive

Request: Given `C=C1C(=O)O[C@@H]2C[C@@H](C)[C@@H]3C=CC(=O)[C@@]3(C)[C@@H](OC(=O)CCCC(=O)O[C@H]3[C@@H]4C(=C)C(=O)O[C@@H]4C[C@@H](C)[C@@H]4C=CC(=O)[C@]43C)[C@H]12` , state the outcome it received in this test.
Result: active

Request: Item: `O=c1nc(N2CCCCC2)sc2[nH]c3ccccc3c12`
Result: inactive

Request: Item: CCOC(=O)CCC(NC(=O)OCc1ccccc1)C(=O)NC(CCC(=O)OCC)C(=O)NC(CCC(=O)OCC)C(=O)NNC(=O)OC(C)(C)C (stereo not drawn)
Result: inactive

----------
System: SNB-19
Protocol Text: NCI tumour cell line growth inhibition, 48 h
Active and inactive are the calls of the source. Cut-off read from the data, not from the text of the source: active = GI50 up to about 1.1 µM and inactive = higher.
Quantity: GI50

Solved cases (5 shown):
CC(C)(N)CO[C@H]1C[C@H]2CC[C@@]1(C)C2(C)C ... 24.8 µM (inactive)
CN1C(=O)N/C(=C\c2ccc(S(=O)(=O)N/N=C\C(O)C(O)C(O)CO)cc2)C1=O (stereo unspecified) ... > 100 µM (inactive)
CCCCCCCCCc1cc(=O)c2c(O)cc(O)cc2o1 ... 18.9 µM (inactive)
CC(C)(C)c1ccccc1N1C(=O)c2ccc3c4c(ccc(c24)C1=O)N(c1ccccc1C(C)(C)C)C3=O ... > 100 µM (inactive)
OC(CCN1CCN(CCOC(c2ccccc2)c2ccccc2)CC1)c1ccc(Br)cc1 (stereo unspecified) ... 15.8 µM (inactive)

Request: // lookup GI50 for CC(C(N)=O)N(C)C(=O)c1cnc2ccccc2c1 (stereo unspecified)
Result: > 100 µM (inactive)

Request: Item: `CCOC(=O)c1c(C)cc(=O)n2c1[nH]c1ccccc12`
Result: 88.3 µM (inactive)

Request: Item: `O=C(O)c1c(-c2ccccc2)c(=O)[nH]c2ccccc12`
Result: > 100 µM (inactive)

Request: Item: O=C1CC2CC(CC3(CO3)C2)C1F (stereo unspecified)
Result: > 100 µM (inactive)

Request: Item: `CN(C)/C=N/S(=O)(=O)c1nn2c(C=O)c(-c3ccc(-c4ccccc4)cc3)nc2s1`
Result: 11.9 µM (inactive)

Request: Item: COc1ccc(/C=C2\C(=O)N(C3OC(COC(C)=O)C(OC(C)=O)C(OC(C)=O)C3OC(C)=O)c3ccccc3N=C2N)cc1 (stereo unspecified)
Result: 42.7 µM (inactive)

Request: Item: `Cc1cc(OC(=O)Nc2cccc3ccccc23)c(C(C)C)cc1C(=S)Nc1ccccc1`
Result: 27.2 µM (inactive)

Request: Item: `COc1ccc2c(c1)Cc1c-2[nH]c2cc3c(cc2c1=O)OCO3`
Result: 23 µM (inactive)

Request: Item: COc1ccc(N2C(=O)C3c4[nH]c5ccc(C)cc5c4C4CCC(C(C)C)CC4C3C2=O)cc1 (stereo unspecified)
Result: > 100 µM (inactive)

Request: Item: `C=C(CCC(=O)N(CCc1c[nH]c2ccccc12)C(=O)c1ccccc1CSCC)C(=O)OC`
Result: 56.5 µM (inactive)

----------
Tested on: HCT-15
Protocol Text: NCI tumour cell line growth inhibition, 48 h
Entries and their GI50
I only need the number, in µM, no unit after it.

Solved cases (2 shown):
c1c[nH]c(-c2cccc3nsnc23)c1 ... 15.7
C=CCCCCCCCCCOC1C=CC(OC(C)=O)C(COC(C)=O)O1 (stereo unspecified) ... 36.6

In the following, a different molecule is considered.
Request: // lookup GI50 for `O=C(O)[C@H]1[C@@H](C2CCCCC2)O[C@@H](C2CCCCC2)O[C@H]1C(F)(F)F`
Result: 30.1

----------
Tested on: RXF 393
Protocol Text: NCI tumour cell line growth inhibition, 48 h
Calls of active or inactive are those of the source. Cut-off read from the data, not from the text of the source: active = GI50 up to about 1.1 µM and inactive = higher.
Quantity: GI50

Solved cases (3 shown):
C/C(=C\CO)CC/C=C(\C)CNc1c(F)c(F)c(F)c(F)c1F ... 24.8 µM (inactive)
COc1ccc2c(c1)Cc1c-2[nH]c2cc3c(cc2c1=O)OCO3 ... 4.01 µM (inactive)
O=c1ssc(Cl)c1Nc1c(Cl)ssc1=O ... 15 µM (inactive)

Request: // lookup GI50 for `O=C1Cc2c(-c3ccccc3)cc(-c3ccc4ccccc4c3)nc2-c2ccccc2N1`
Result: 2.9 µM (inactive)

Request: Item: NC(=O)NC(CC(=O)O)C(=O)O (stereo unspecified)
Result: > 100 µM (inactive)

Request: Item: `COC(=O)C(=O)c1c2ccccc2n2ccc3c4ccccc4[nH]c3c12`
Result: > 10 µM (inactive)

----------
Tested on: U-251
Protocol Text: NCI tumour cell line growth inhibition, 48 h
Calls of active or inactive are those of the source. Cut-off read from the data, not from the text of the source: active = GI50 up to about 1.1 µM and inactive = higher.
Result category, one only: true (1) for active, false (0) for inactive

For orientation, consider the following solved cases.
O=C(O)c1ccccc1CN1CCCC(C(=O)O)C1 (configuration not stated) ... false (0)
c1ccc(OC2=NC3=S(S2)SC(Oc2ccccc2)=N3)cc1 ... false (0)
ClCCCN1CCN(CCCl)CC1 ... false (0)

Request: Given COC(=O)C(NC(=O)c1ccccc1)C(c1c(O)cc(O)cc1O)P(=O)(OC)OC (configuration not stated) , state the outcome it received in this test.
Result: false (0)

Request: Item: `CC(=O)C1=C(C)NC(=C(C#N)C#N)C(C#N)=C1`
Result: false (0)

Request: Item: `COc1cc2c(cc1OCCCOc1cc3c(cc1OC)C(=O)N1CCC[C@H]1CN3)N=C[C@@H]1CCCN1C2=O`
Result: true (1)

----------
Test system: Malme-3M
Protocol Text: NCI tumour cell line growth inhibition, 48 h
Calls of active or inactive are those of the source. Cut-off read from the data, not from the text of the source: active = GI50 up to about 1.1 µM and inactive = higher.
Quantity: GI50

Solved cases (5 shown):
Cc1cc(C)c2c(=N)c3ccccc3n(CCCCCCCCn3c4ccccc4c(=N)c4c(C)cc(C)nc43)c2n1 ... 1.74 µM (inactive)
CCOC(=O)CCC(NC(=O)OCc1ccccc1)C(=O)NC(CCC(=O)OCC)C(=O)NC(CCC(=O)OCC)C(=O)NNC(=O)OC(C)(C)C (stereo not given) ... > 100 µM (inactive)
O=S(O)CCCCCSSSCCCCCS(=O)O ... 6.5 µM (inactive)
Cc1cc(C)nc(NS(=O)(=O)c2ccc(Nc3c4ccccc4nc4c(C(=O)NNCCO)cccc34)cc2)n1 ... > 100 µM (inactive)
O=C1c2ccccc2C(=O)c2c(NC(=O)c3ccc4c5c(ncnc35)-c3ccccc3C4=O)cccc21 ... > 100 µM (inactive)

Request: Give Malme-3M GI50 for `Cc1c(-c2ccccc2)oc(=O)c2ccccc12`
Result: 21.7 µM (inactive)

Request: Item: `NCC(=O)Nc1ccccc1`
Result: > 100 µM (inactive)

Request: Item: C=CCCCCCCCCCOC1C=CC(OC(C)=O)C(COC(C)=O)O1 (stereo not given)
Result: 35.2 µM (inactive)

Request: Item: `O=C(C#Cc1ccccc1)C1=Cc2ccccc2OC1`
Result: 4.2 µM (inactive)

Request: Item: COC(c1ccsc1)C(C#N)(C#N)/N=C/c1ccsc1 (stereo not given)
Result: 15.3 µM (inactive)
